Provenance of the data: ChEMBL document CHEMBL2417531

- system_name: Tumor necrosis factor receptor superfamily member 6 (Rattus norvegicus) (UniProt Q63199)
- Sequence (whole entry): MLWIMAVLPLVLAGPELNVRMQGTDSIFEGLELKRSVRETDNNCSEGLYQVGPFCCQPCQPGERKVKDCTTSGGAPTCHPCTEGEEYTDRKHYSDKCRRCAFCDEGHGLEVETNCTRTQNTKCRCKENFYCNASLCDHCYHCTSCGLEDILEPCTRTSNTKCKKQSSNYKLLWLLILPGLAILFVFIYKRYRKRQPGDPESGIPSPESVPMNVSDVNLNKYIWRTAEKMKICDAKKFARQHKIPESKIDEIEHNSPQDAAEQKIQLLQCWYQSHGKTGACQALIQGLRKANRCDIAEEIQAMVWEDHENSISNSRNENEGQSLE
- measurement_notes: Inhibition of Fas-mediated cell death in oxygen and glucose deprived rat H9c2 cells at 10 uM treated 30 mins before oxygen and glucose deprivation measured after 6 hrs by DAPI staining
- Format: cell-based
// False strictly below 9% in inhibition; True otherwise

(Q) Threshold query (inhibition >= 9%) on COC(=O)c1cc(Br)cc(Br)c1NC(=O)C(Sc1ccc(Br)cc1)c1ccccc1 (centres undefined)
(A) True

(Q) Threshold query (inhibition >= 9%) on COC(=O)c1sccc1NC(=O)COc1ccc(Br)cc1
(A) True

(Q) Threshold query (inhibition >= 9%) on COC(=O)c1oc2ccccc2c1NC(=O)CSc1ccc(Br)cc1
(A) False

(Q) Threshold query (inhibition >= 9%) on COC(=O)c1cc(Br)cc(Br)c1NC(=O)CCSc1ccccn1
(A) True

(Q) Threshold query (inhibition >= 9%) on COC(=O)c1c(NC(=O)CSc2ccc(Br)cc2)cnn1CCc1ccccc1
(A) False

(Q) Threshold query (inhibition >= 9%) on COC(=O)c1c(NC(=O)CSc2cccc(OC)c2)cnn1CCc1ccccc1
(A) False

(Q) Threshold query (inhibition >= 9%) on O=C(CSc1ccc(Br)cc1)Nc1c(Br)cc(Br)cc1C(=O)O
(A) True

(Q) Threshold query (inhibition >= 9%) on COC(=O)c1sccc1NC(=O)CCSc1ccc(Br)cc1
(A) True

(Q) Threshold query (inhibition >= 9%) on COC(=O)c1nn(CCc2ccccc2)cc1NC(=O)CCc1ccccc1
(A) False

(Q) Threshold query (inhibition >= 9%) on COC(=O)c1sccc1NC(=O)CN(C)c1ccccc1
(A) False

(Q) Threshold query (inhibition >= 9%) on O=C(CCSc1ccccn1)Nc1cc(Cl)ccc1C1=NCCO1
(A) True

(Q) Threshold query (inhibition >= 9%) on COC(=O)c1sccc1NC(=O)CCSc1ccccc1
(A) False

(Q) Threshold query (inhibition >= 9%) on COC(=O)c1sccc1NC(=O)CSc1cccc(OC)c1
(A) False

(Q) Threshold query (inhibition >= 9%) on COC(=O)c1ccsc1NC(=O)CCSc1ccc(Br)cc1
(A) False

(Q) Threshold query (inhibition >= 9%) on COC(=O)c1sc2ccccc2c1NC(=O)CSc1ccccc1
(A) False

(Q) Threshold query (inhibition >= 9%) on COC(=O)c1sccc1NC(=O)CSc1ccccc1
(A) True

(Q) Threshold query (inhibition >= 9%) on COC(=O)c1c(NC(=O)CSc2ccccc2N)cnn1CCc1ccccc1
(A) False

(Q) Threshold query (inhibition >= 9%) on COC(=O)c1ccc(Cl)cc1NC(=O)CCSc1ccccn1
(A) True

(Q) Threshold query (inhibition >= 9%) on COC(=O)c1cc(OC)c(OC)c(OC)c1NC(=O)CCSc1ccccn1
(A) True

(Q) Threshold query (inhibition >= 9%) on COC(=O)c1cc(OC)c(OC)cc1NC(=O)CCSc1ccccn1
(A) True

(Q) Threshold query (inhibition >= 9%) on COC(=O)c1sc2ccccc2c1NC(=O)CCSc1ccc(Br)cc1
(A) False

(Q) Threshold query (inhibition >= 9%) on COC(=O)c1sccc1NC(=O)CSc1ccc(Br)cc1
(A) False

(Q) Threshold query (inhibition >= 9%) on COC(=O)c1ccc(Cl)cc1NC(=O)CSc1ccc(Br)cc1
(A) True
